Some sequences, each annotated with its measured Kd.
TGT: HLA-B*27:05
EXPERIMENT_NOTES: IEDB peptide-MHC binding, purified MHC/direct/fluorescence; filed as Kd, often an IC50 or EC50 that approximates it; bounds were set here for any values at or beyond the usual limits of such assays
SETTINGS: source organism: Mammarenavirus juninense
OBSERVED_PROPERTY: Kd

> print(dat)
   residue.codes   result
1      GKLDPTNTL  ≥ 20 µM
2      GRSCTEETF  ≥ 20 µM
3      YAKKFKTGM  ≥ 20 µM

###

TGT: HLA-A*02:03
EXPERIMENT_NOTES: IEDB peptide-MHC binding, purified MHC/direct/fluorescence; filed as Kd, often an IC50 or EC50 that approximates it; bounds were set here for any values at or beyond the usual limits of such assays
SETTINGS: source organism: Rickettsia bellii OSU 85-389
pKd: −log10 of the molar value.
OBSERVED_PROPERTY: pKd

> print(dat)
   residue.codes          tgt  observed.property  result
1      AKIALAVYK  HLA-A*02:03                pKd  ≤ 4.70

###

TGT: HLA-A*03:01
EXPERIMENT_NOTES: IEDB peptide-MHC binding, purified MHC/direct/fluorescence; filed as Kd, often an IC50 or EC50 that approximates it; bounds were set here for any values at or beyond the usual limits of such assays
SETTINGS: source organism: Influenza A virus (A/Puerto Rico/8/34/Mount Sinai(H1N1))
pKd: −log10 of the molar value.
OBSERVED_PROPERTY: pKd

> print(dat)
   residue.codes  observed.property  numeric.readout
1      VSPLAVTWW                pKd             6.76

###

pKd: recorded values
TGT: HLA-A*03:01
EXPERIMENT_NOTES: IEDB peptide-MHC binding, purified MHC/competitive/radioactivity; filed as Kd, often an IC50 or EC50 that approximates it; bounds were set here for any values at or beyond the usual limits of such assays
SETTINGS: source organism: Dengue virus 3 Martinique/1243/1999
pKd: −log10 of the molar value.
OBSERVED_PROPERTY: pKd

> print(dat)
   residue.codes  observed.property  numeric.readout
1      LTYQNKVVK                pKd             7.93
2     RLKMDKLELK                pKd             7.46
3     GLLNGQGPMK                pKd             8.02

###

TGT: HLA-A*26:01
EXPERIMENT_NOTES: IEDB peptide-MHC binding, purified MHC/competitive/radioactivity; filed as Kd, often an IC50 or EC50 that approximates it; bounds were set here for any values at or beyond the usual limits of such assays
SETTINGS: source organism: Dengue virus 1 Singapore/S275/1990
OBSERVED_PROPERTY: Kd (nM)

> print(dat)
   residue.codes  observed.property  numeric.readout
1      TSIGLLCVM                 Kd             2450

###

TGT: HLA-B*35:01
EXPERIMENT_NOTES: IEDB peptide-MHC binding, purified MHC/direct/fluorescence; filed as Kd, often an IC50 or EC50 that approximates it; bounds were set here for any values at or beyond the usual limits of such assays
SETTINGS: source organism: Vibrio vulnificus
pKd: −log10 of the molar value.
OBSERVED_PROPERTY: pKd

> print(dat)
   residue.codes  observed.property  numeric.readout
1      LLTQSNAGF                pKd             6.46
2      DFPIFNQRY                pKd             6.93

###

TGT: HLA-A*32:01
EXPERIMENT_NOTES: IEDB peptide-MHC binding, purified MHC/competitive/radioactivity; filed as Kd, often an IC50 or EC50 that approximates it; bounds were set here for any values at or beyond the usual limits of such assays
SETTINGS: source organism: Dengue virus 3 Martinique/1243/1999
pKd: −log10 of the molar value.
OBSERVED_PROPERTY: pKd

> print(dat)
   residue.codes  observed.property  censoring.qualifier  numeric.readout
1     LLVWHTWQKQ                pKd                    ≤             4.63
2     SAVPVHWVPT                pKd                    =             5.70

###

TGT: HLA-B*18:01
EXPERIMENT_NOTES: IEDB peptide-MHC binding, purified MHC/competitive/fluorescence; filed as Kd, often an IC50 or EC50 that approximates it; bounds were set here for any values at or beyond the usual limits of such assays
SETTINGS: source organism: Orthohantavirus delgaditoense
OBSERVED_PROPERTY: Kd

> print(dat)
   residue.codes   result
1      DWMERIEDF  ≥ 20 µM

###

TGT: HLA-A*11:01
EXPERIMENT_NOTES: IEDB peptide-MHC binding, purified MHC/direct/fluorescence; filed as Kd, often an IC50 or EC50 that approximates it; bounds were set here for any values at or beyond the usual limits of such assays
SETTINGS: source organism: Mammarenavirus juninense
pKd: −log10 of the molar value.
OBSERVED_PROPERTY: pKd

> print(dat)
   residue.codes  observed.property  result
1      YAKKFKTGM                pKd  ≤ 4.70

###

TGT: HLA-A*23:01
EXPERIMENT_NOTES: IEDB peptide-MHC binding, purified MHC/competitive/fluorescence; filed as Kd, often an IC50 or EC50 that approximates it; bounds were set here for any values at or beyond the usual limits of such assays
SETTINGS: source organism: Francisella tularensis subsp. tularensis FSC198
OBSERVED_PROPERTY: Kd

> print(dat)
   residue.codes          tgt   result
1      MQLAKEHNF  HLA-A*23:01  29.1 nM

###

TGT: HLA-A*02:01
EXPERIMENT_NOTES: IEDB peptide-MHC binding, purified MHC/direct/fluorescence; filed as Kd, often an IC50 or EC50 that approximates it; bounds were set here for any values at or beyond the usual limits of such assays
SETTINGS: source organism: Burkholderia mallei ATCC 23344
OBSERVED_PROPERTY: Kd

> print(dat)
   residue.codes  observed.property   result
1      QHAWPLPPL                 Kd  ≥ 20 µM

###

TGT: HLA-A*02:19
EXPERIMENT_NOTES: IEDB peptide-MHC binding, purified MHC/direct/fluorescence; filed as Kd, often an IC50 or EC50 that approximates it; bounds were set here for any values at or beyond the usual limits of such assays
SETTINGS: source organism: Burkholderia mallei ATCC 23344
pKd: −log10 of the molar value.
OBSERVED_PROPERTY: pKd

> print(dat)
   residue.codes  observed.property  result
1      QHAWPLPPL                pKd  ≤ 4.70

###

TGT: HLA-A*02:03
EXPERIMENT_NOTES: IEDB peptide-MHC binding, purified MHC/competitive/fluorescence; filed as Kd, often an IC50 or EC50 that approximates it; bounds were set here for any values at or beyond the usual limits of such assays
SETTINGS: source organism: Variola virus
OBSERVED_PROPERTY: Kd (nM)

> print(dat)
   residue.codes  observed.property  numeric.readout
1      DILASIIDY                 Kd             1850

###

TGT: HLA-A*02:12
EXPERIMENT_NOTES: IEDB peptide-MHC binding, purified MHC/direct/fluorescence; filed as Kd, often an IC50 or EC50 that approximates it; bounds were set here for any values at or beyond the usual limits of such assays
SETTINGS: source organism: Coxiella burnetii
pKd: −log10 of the molar value.
OBSERVED_PROPERTY: pKd

> print(dat)
   residue.codes  observed.property  result
1      KFFMVHSLK                pKd  ≤ 4.70

###

TGT: HLA-A*02:01
EXPERIMENT_NOTES: IEDB peptide-MHC binding, purified MHC/competitive/fluorescence; filed as Kd, often an IC50 or EC50 that approximates it; bounds were set here for any values at or beyond the usual limits of such assays
SETTINGS: source organism: Escherichia coli E22
OBSERVED_PROPERTY: Kd (nM)

> print(dat)
   residue.codes  numeric.readout
1      YQTYVSPGA              0.4

###

TGT: HLA-B*51:01
EXPERIMENT_NOTES: IEDB peptide-MHC binding, purified MHC/competitive/fluorescence; filed as Kd, often an IC50 or EC50 that approximates it; bounds were set here for any values at or beyond the usual limits of such assays
SETTINGS: source organism: Escherichia coli E22
pKd: −log10 of the molar value.
OBSERVED_PROPERTY: pKd

> print(dat)
   residue.codes  observed.property  result
1      YQTYVSPGA                pKd  ≤ 4.70
